# Test system: SK-MEL-28 melanoma
# TEST_PROTOCOL: NCI-60 one-dose screen, 48 h (100 = growth as untreated, 0 = no growth, -100 = all killed)
# RUN_PARAMETERS: 10 µM
Compounds without any hit were thinned out: in the full panel of roughly 83,000, 20% have a hit.
READOUT_LABEL: growth (%)
Express your answer in %, writing the number without its unit.

For orientation, consider the following solved cases.
COMPOUND	TARGET_UNDER_TEST	growth / %
O=C(Nc1cccc2c1CCCC2)c1cc2ccccc2cc1O	SK-MEL-28 melanoma	34.2
C/C(=C/CCC(C)[C@@H]1CC[C@]2(C)C3=C(CC[C@@]12C)[C@@]1(C)CCC(=O)C(C)(C)[C@@H]1CC3)C(=O)O (some centres undefined)	SK-MEL-28 melanoma	-83.9
O[C@@H]1CO[C@H]2[C@@H]1OC[C@@H]2O	SK-MEL-28 melanoma	113
C=CCSC(CC)(CC)C(=O)NC	SK-MEL-28 melanoma	110

Documented growth of "COc1cc(C(=O)/C(C)=C/c2c[nH]c3ccccc23)cc(OC)c1OC" : 66.2

response.value for "Cc1ccc(C)c(COc2cc(NC(=O)c3ccc4c(c3)OCO4)ccc2N(C)S(C)(=O)=O)c1" (field: growth) = 64.6

Value of growth reported for the compound COc1ccc2c(c1)C(CC(=O)NN)CCC2 (centres undefined) is 113

The value of growth measured for the compound CCN(CC)CCCC(C)N=C(C1=C(C(=NC(C)CCCN(CC)CC)c2cccc(OC)c2)C(=O)NC1=O)c1cccc(OC)c1 (centres undefined) turned out to be -69.1

Form field growth, entry "Nc1nc(-c2ccc(Cl)cc2)cc(-c2cc3ccccc3oc2=O)n1" : 110

Entry "c1cnc2[nH]cc(-c3nc(-c4ccsc4)cs3)c2c1" — recorded growth = 122

---

Reported growth by item:
# Tested on: A549/ATCC NSCLC
# TEST_PROTOCOL: NCI-60 one-dose screen, 48 h (100 = growth as untreated, 0 = no growth, -100 = all killed)
# RUN_PARAMETERS: 10 µM
About 83,000 compounds went through this panel and 20% of them were active in at least one assay; those are over-represented in the sample as a whole.
Just the number please, in %, no unit attached.

These recorded examples may help you get a feel for the data.
COMPOUND	growth [%]
CC(C)(C)OC(=O)N1CCc2c(sc3ncnc(N/N=C/c4cccc5ccccc45)c23)C1	23.8
CC(C)C[C@H](NC(=O)Cn1cccc(CNC(=O)c2ccccc2)c1=O)B(O)O	43.9
CCOC(=O)CSc1nc(-c2cc(OC)ccc2OC)cc(-c2ccc(OC)cc2)c1C#N	61.6

Field: next compound
In plain terms, CC(=O)O[C@@]12CO[C@@H]1C[C@H](O)[C@@]1(C)C(=O)[C@H](O)C3=C(C)[C@@H](OC(=O)[C@H](O)[C@@H](NC(=O)OC(C)(C)C)c4ccccc4)C[C@@](O)([C@@H](OC(=O)c4ccccc4)C12)C3(C)C (some centres undefined) has a documented growth of 38.8

---

Entries and their growth
# Test system: MDA-MB-435 melanoma
# TEST_PROTOCOL: NCI-60 one-dose screen, 48 h (100 = growth as untreated, 0 = no growth, -100 = all killed)
# RUN_PARAMETERS: 10 µM
Compounds without any hit were thinned out: in the full panel of roughly 83,000, 20% have a hit.
Write the number in % without appending the unit.

Consider the worked cases shown below.
>>> print(df.to_string())
                                   compound  measured_result
0  COc1ccc2nc3cc(Cl)ccc3c(Nc3cc(CN4CCCC4)c(O)c(CN4CCCC4)c3)c2n1              -94
1  COc1cc(/C=C/c2cc(/C=C/c3ccc(O)c(OC)c3)[nH]c(=O)n2)ccc1O             56.9
2  COc1ccc(C(c2ccc(OCCN(C)C)cc2)c2cc3ccccc3c3ccccc23)cc1 (centres undefined)            -25.4

Just so you know, measured growth for "COc1cc(NC(=O)C2=C(N3CCOCC3)/C(=C/c3ccc(Cl)cc3)CC2)cc(OC)c1OC" came out at 75.3

growth recorded for this compound, "Cc1cc(=O)n2nnc3cc(C(F)(F)F)ccc3n12" , is 99.4

Reported growth for C#C[C@]1(O)CCC2C3CCc4cc(OC5CCCC5)ccc4C3CC[C@@]21C (some centres undefined) was 94.8

Query NC1=NC(c2ccc(Cl)cc2)C2=C(N1)/C(=C/c1ccc(Cl)cc1)CCC2 (centres undefined) yields growth of -0.458

get_value(item= "CCN1CCN(CCC(=O)Nc2cccc(-n3cc(-c4ccncc4)c(-c4ccc(Cl)c(OC)c4)n3)c2)CC1" , readout=growth) returns -47

Sure, the documented growth for "C=CCNCCN1C(=O)c2ccc3c4c(ccc(c24)C1=O)C(=O)N(CCNCC=C)C3=O" is -85.2
